- Tested on: HSkMC
- EXPERIMENTAL_DETAILS: cytotoxicity call (relative viability < 0.9)
- STATED_CONDITIONS: 10 µM
About 1,500 (3.8%) of roughly 39,000 compounds were called active. Shown is part of a subset that was picked to be rich in actives.
Hi! Could you answer with just one of these? active, inactive

Example entries begin here.
[
  {
    "STRUCTURE_SMILES": "C[C@@H]1CN([C@@H](C)CO)C(=O)Cc2cc(NC(=O)CCCCCC(=O)Nc3ccccc3N)ccc2O[C@@H]1CN(C)CC1CCCCC1",
    "CLASS_LABEL": "inactive"
  },
  {
    "STRUCTURE_SMILES": "C[C@@H]1CCCCO[C@@H](CN(C)C(=O)CCC(F)(F)F)[C@@H](C)CN([C@@H](C)CO)C(=O)c2cc(NC(=O)c3ccccc3)ccc2O1",
    "CLASS_LABEL": "inactive"
  },
  {
    "STRUCTURE_SMILES": "COc1cc(NC(=O)c2cccc(-n3cc(NC(=O)Nc4cccc(C)c4)cn3)c2)cc(OC)c1OC",
    "CLASS_LABEL": "active"
  },
  {
    "STRUCTURE_SMILES": "O=C(CN1CCOCC1)NCC[C@H]1CC[C@H](NC(=O)c2ccccc2F)[C@H](CO)O1",
    "CLASS_LABEL": "inactive"
  }
]

Turning to the following compound.
INPUT: In this assay, the call recorded for "CCCNC(=O)N1C[C@@H](O)COC[C@@H]2O[C@@H](CC(=O)N3CCOCC3)CC[C@H]21" was what?
OUTPUT: inactive

----------
- System: HSkMC
- EXPERIMENTAL_DETAILS: cytotoxicity call (relative viability < 0.9)
- STATED_CONDITIONS: 10 µM
The campaign covered roughly 39,000 compounds. About 1,500 (3.8%) were called active. The list comes from a sample in which actives are over-represented; it also holds close analogues and randomly drawn compounds.

[
  {
    "STRUCTURE_SMILES": "C[C@H](CO)N1C[C@H](C)[C@@H](CN(C)Cc2ccc(Oc3ccccc3)cc2)Oc2c(NC(=O)Nc3ccccc3)cccc2C1=O",
    "cytotoxicity call": "active"
  },
  {
    "STRUCTURE_SMILES": "C[C@H](CO)N1C[C@H](C)[C@@H](CN(C)Cc2ccc(Oc3ccccc3)cc2)Oc2c(NC(=O)Nc3cccc4ccccc34)cccc2C1=O",
    "cytotoxicity call": "active"
  }
]

----------
- System: HSkMC
- EXPERIMENTAL_DETAILS: cytotoxicity call (relative viability < 0.9)
- STATED_CONDITIONS: 10 µM
The whole screen tested about 39,000 compounds, of which about 1,500 (3.8%) were called active. The sample as a whole holds a higher share of actives than the screen did.
Bench note: report the call from YES for active, NO for inactive

[
  {
    "STRUCTURE_SMILES": "C[C@H]1CN([C@@H](C)CO)C(=O)c2cc(NC(=O)Nc3ccc(F)cc3)ccc2O[C@@H]1CN(C)C(=O)Nc1cccc2ccccc12",
    "CLASS_LABEL": "NO"
  }
]

INPUT: What did the test return for "CN(C)c1ccc2nc3ccc(N(C)C)cc3[s+]c2c1.O.[Cl-]" ?
OUTPUT: YES

INPUT: Answer briefly: the call reported for "COCCn1cc2c(n1)[C@H](CNC(=O)COC)OCC2" in this assay.
OUTPUT: NO

INPUT: GET /call?item= "C[C@H](CO)N1C[C@H](C)[C@H](CN(C)Cc2ccc(C(F)(F)F)cc2)Oc2ccc(NC(=O)Nc3ccc(F)cc3)cc2C1=O" returns the recorded outcome of this test.
OUTPUT: NO

INPUT: Per the assay record, what outcome was assigned to "C[C@H](CO)N1C[C@H](C)[C@H](CN(C)C(=O)Nc2cccc3ccccc23)Oc2ccc(NC(=O)Nc3ccc(F)cc3)cc2C1=O" ?
OUTPUT: NO

----------
- System: HSkMC
- EXPERIMENTAL_DETAILS: cytotoxicity call (relative viability < 0.9)
- STATED_CONDITIONS: 10 µM
About 1,500 (3.8%) of roughly 39,000 compounds were called active. Shown is part of a subset that was picked to be rich in actives.
Pick one: t for active, f for inactive

These solved cases illustrate the format of a correct answer.
[
  {
    "STRUCTURE_SMILES": "Cc1noc(C)c1S(=O)(=O)Nc1ccc2c(c1)C(=O)N([C@H](C)CO)C[C@H](C)[C@@H](CN(C)S(=O)(=O)c1ccccc1)O2",
    "CLASS_LABEL": "f"
  },
  {
    "STRUCTURE_SMILES": "Cc1cc(C)n([C@@H](C)CN)n1",
    "CLASS_LABEL": "f"
  },
  {
    "STRUCTURE_SMILES": "C[C@@H]1CN([C@H](C)CO)S(=O)(=O)c2ccc(C#Cc3ccncc3)cc2O[C@@H]1CN(C)C(=O)C1CCC1",
    "CLASS_LABEL": "f"
  }
]

INPUT: Fill in: this test's call for "CCOc1cc2ncc(C#N)c(Nc3ccc(OCc4ccccn4)c(Cl)c3)c2cc1NC(=O)/C=C/[C@H]1CCCN1C" is ___
OUTPUT: f

INPUT: Record request — test call for "C[C@@H]1CN([C@H](C)CO)C(=O)c2cc(C#CC3(O)CCCC3)cnc2O[C@@H]1CN(C)C(=O)C1CCCCC1"
OUTPUT: f

INPUT: Entry "O=C(C[C@@H]1CC=CCC[C@@H](Cc2ccc(F)cc2)C(=O)OC[C@H](Cc2c[nH]c3ccccc23)NC1=O)N[C@@H](CO)Cc1ccccc1" : call = ?
OUTPUT: f

----------
- Test system: HSkMC
- EXPERIMENTAL_DETAILS: cytotoxicity call (relative viability < 0.9)
- STATED_CONDITIONS: 10 µM
The whole screen tested about 39,000 compounds, of which about 1,500 (3.8%) were called active. The full list was thinned out, with actives kept by preference.
MEASURED_QUANTITY: cytotoxicity call

Consider the worked cases shown below.
[
  {
    "STRUCTURE_SMILES": "C[C@@H]1CN([C@H](C)CO)C(=O)c2cccc(NS(=O)(=O)c3ccc(Cl)cc3)c2O[C@@H]1CN(C)C(=O)Nc1ccc(C(F)(F)F)cc1",
    "MEASURED": "active"
  },
  {
    "STRUCTURE_SMILES": "C[C@@H]1CCCCO[C@H](CN(C)Cc2ccc(C(=O)O)cc2)[C@@H](C)CN([C@@H](C)CO)C(=O)c2cc(NC(=O)Nc3cccc4ccccc34)ccc2O1",
    "MEASURED": "inactive"
  },
  {
    "STRUCTURE_SMILES": "C[C@H]1CN([C@@H](C)CO)C(=O)c2cccc(NS(=O)(=O)c3ccc(Cl)cc3)c2O[C@@H]1CN(C)C(=O)Nc1ccc(C(F)(F)F)cc1",
    "MEASURED": "inactive"
  },
  {
    "STRUCTURE_SMILES": "C[C@@H]1CN([C@H](C)CO)C(=O)c2cccc(NS(=O)(=O)c3ccc(F)cc3)c2O[C@H]1CN(C)C(=O)Nc1ccc(C(F)(F)F)cc1",
    "MEASURED": "inactive"
  }
]

INPUT: For HSkMC, provide cytotoxicity call of "C[C@@H]1CN([C@@H](C)CO)C(=O)c2cccc(NS(=O)(=O)c3ccc(F)cc3)c2O[C@@H]1CN(C)C(=O)Nc1ccc(C(F)(F)F)cc1" please.
OUTPUT: inactive

INPUT: Form entry - test system: HSkMC; read-out: cytotoxicity call; compound: "C[C@H](CO)N1C[C@H](C)[C@@H](CN(C)Cc2ccccc2)OCCCC[C@H](C)Oc2ccc(NC(=O)Nc3cccc4ccccc34)cc2C1=O"
OUTPUT: active

INPUT: Enter reported cytotoxicity call observed with HSkMC for "C[C@@H]1CCCCO[C@@H](CN(C)Cc2ccccc2)[C@@H](C)CN([C@@H](C)CO)C(=O)c2cc(NC(=O)Nc3cccc4ccccc34)ccc2O1"
OUTPUT: inactive

----------
- Test system: HSkMC (human skeletal muscle cells)
- EXPERIMENTAL_DETAILS: cytotoxicity call (relative viability < 0.9)
- STATED_CONDITIONS: 10 µM
Out of some 39,000 compounds screened, about 1,500 (3.8%) were called active. Many of the other results were omitted from the sample, so actives are more common in it than they were.
Response enum: 1.0 for active, 0.0 for inactive

Take a look at these entries with their results.
[
  {
    "MOLECULE": "Cc1noc(C)c1NC(=O)Nc1cccc2c1O[C@H](CN(C)Cc1ccc(C(F)(F)F)cc1)[C@@H](C)CN([C@@H](C)CO)C2=O",
    "CLASS_LABEL": 0.0
  },
  {
    "MOLECULE": "CC(C)Oc1cccc(-n2c(CCc3c[nH]c4ccc(Br)cc34)nc3ccccc3c2=O)c1",
    "CLASS_LABEL": 1.0
  },
  {
    "MOLECULE": "COCC(=O)Nc1ccc2c(c1)OC[C@@H](C)N(Cc1ccccc1OC)C[C@@H](C)[C@H](OC)CN(C)C2=O",
    "CLASS_LABEL": 0.0
  },
  {
    "MOLECULE": "Cc1ccc(S(=O)(=O)Nc2ccc3c(c2)C(=O)N([C@@H](C)CO)C[C@@H](C)[C@@H](CN(C)S(=O)(=O)c2ccc(C)cc2)OCCCC[C@H](C)O3)cc1",
    "CLASS_LABEL": 0.0
  }
]

Now for a further molecule.
INPUT: Outcome logged for "C[C@H](CO)N1C[C@H](C)[C@H](CN(C)CC2CC2)OCCCC[C@H](C)Oc2ccc(NC(=O)Nc3cccc4ccccc34)cc2C1=O" in this assay:
OUTPUT: 0.0
